- system: EGFR (Homo sapiens)
- Construct: endogenous in cells; host or cells: 184A1 human mammary epithelial cells (parental HMEC); also 24H HMEC line (overexpresses HER2)
- experiment notes: Biotinylated cyclic polypeptides tested for inhibition of EGFR phosphorylation in a model HMEC cell system
- Format: cell-based
- condition: biotinylated cyclic polypeptide
readout type: Peptide Inhibition (EGFR phosphorylation)

substance | result
CRNVSRGREC [Biotin-GCRNVSRGRECG- CONH2] | Yes
LYNPTTYQMD [Biotin-GCGLYNPTTYQMDGCG-CONH2] | No
LVWKYADAG [Biotin-GCLVWKYADAGCG-CONH2] | Yes
CAHYIDGPHC [Biotin-GCAHYIDGPHCG-CONH2] | Yes
Biotin-Aha-CMGENNTG-CONH2 | Yes
